Listing of entries alongside the reported EC50.
target: Mu-type opioid receptor (Homo sapiens); experiment: Agonist activity at human Rluc8-tagged MOP expressed in HEK293 cells coexpressing eYFP-tagged beta-arrestin-2 assessed as beta-arrestin-2 recruitment incubated for 5 mins by luminometer analysis; type: functional, cell-based; details: read-out: EC50
Sequence (P35372 whole entry): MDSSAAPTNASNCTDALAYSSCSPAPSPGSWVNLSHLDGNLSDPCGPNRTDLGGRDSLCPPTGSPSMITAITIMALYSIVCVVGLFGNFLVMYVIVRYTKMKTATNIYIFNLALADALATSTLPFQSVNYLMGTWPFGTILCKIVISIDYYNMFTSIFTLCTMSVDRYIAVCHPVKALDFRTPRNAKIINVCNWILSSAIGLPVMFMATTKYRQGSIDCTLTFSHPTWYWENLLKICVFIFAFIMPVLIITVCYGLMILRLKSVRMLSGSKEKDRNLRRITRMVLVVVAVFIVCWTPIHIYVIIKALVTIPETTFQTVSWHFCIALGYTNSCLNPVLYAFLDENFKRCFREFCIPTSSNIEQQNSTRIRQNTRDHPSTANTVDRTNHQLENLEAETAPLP
Numbered stars: 1 amine (or outer) side, 2 acyl side, 3 side chain; on linkers, the order of the positions; unused ones are H or OH. Square brackets hold non-standard residues; d marks the D form. Peptide text beside a SMILES is read from it. Nva(5-(4-Bn-piperidin-1-yl)) = N[C@@H](CCCN1CCC(Cc2ccccc2)CC1)C(=O)O; X1 = O=C1[C@@H](N[*:1])Cc2ccccc2CN1CCC(=O)[*:2]; Tic(7-OH) = O=C(O)[C@@H]1Cc2ccc(O)cc2CN1
# value in nM; strip the unit string

COMPOUND | ASSAY_TARGET | REPORTED_METRIC | MEASURED_RESULT
N=C(N)NCCC[C@@H](NC(=O)[C@@H]1Cc2ccc(O)cc2CN1)C(=O)N[C@H]1Cc2ccccc2CN(CCC(=O)N[C@@H](CCCN2CCC(Cc3ccccc3)CC2)C(=O)N[C@@H](Cc2ccccc2)C(N)=O)C1=O (H-[Tic(7-OH)][dR][X1][Nva(5-(4-Bn-piperidin-1-yl))]F-NH2) | Mu-type opioid receptor (Homo sapiens) | EC50 | 1340

# return recorded EC50 for entry Cc1cc(O)cc(C)c1C[C@H](N)C(=O)N[C@H](CCCNC(=N)N)C(=O)N[C@H]1Cc2ccccc2CN(CCC(=O)N[C@@H](CCCN2CCC(Cc3ccccc3)CC2)C(=O)N[C@@H](Cc2ccccc2)C(N)=O)C1=O
125

====

molecular target: Neuropeptide FF receptor 1 (Homo sapiens)
Sequence (Q9GZQ6 whole entry): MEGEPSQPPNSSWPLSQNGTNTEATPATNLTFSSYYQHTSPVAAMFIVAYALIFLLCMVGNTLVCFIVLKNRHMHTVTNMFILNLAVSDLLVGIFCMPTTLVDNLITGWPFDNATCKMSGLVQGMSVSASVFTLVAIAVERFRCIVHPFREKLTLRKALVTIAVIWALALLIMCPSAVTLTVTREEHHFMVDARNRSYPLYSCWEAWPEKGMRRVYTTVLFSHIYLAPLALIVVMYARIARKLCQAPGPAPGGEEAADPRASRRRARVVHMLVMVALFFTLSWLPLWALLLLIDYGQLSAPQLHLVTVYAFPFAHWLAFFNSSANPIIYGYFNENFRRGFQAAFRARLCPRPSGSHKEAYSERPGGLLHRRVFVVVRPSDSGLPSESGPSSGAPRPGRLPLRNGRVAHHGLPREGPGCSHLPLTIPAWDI
Numbered stars: 1 amine (or outer) side, 2 acyl side, 3 side chain; on linkers, the order of the positions; unused ones are H or OH. Square brackets hold non-standard residues; d marks the D form. Peptide text beside a SMILES is read from it. Nva(5-(4-Bn-piperidin-1-yl)) = N[C@@H](CCCN1CCC(Cc2ccccc2)CC1)C(=O)O; X1 = O=C1[C@@H](N[*:1])Cc2ccccc2CN1CCC(=O)[*:2]; Dmt = Cc1cc(O)cc(C)c1C[C@H](N)C(=O)O
Listing of entries alongside the reported Ki.
# value in nM; strip the unit string

Here is how some compounds turned out for Ki.
COMPOUND | RESULT_UNIT | Ki
Cc1cc(O)cc(C)c1C[C@H](N)C(=O)N1CCC[C@@H]1C(=O)N[C@H]1Cc2ccccc2CN(CCC(=O)N[C@@H](CCCN2CCC(Cc3ccccc3)CC2)C(=O)N[C@@H](Cc2ccccc2)C(N)=O)C1=O (H-[Dmt][dP][X1][Nva(5-(4-Bn-piperidin-1-yl))]F-NH2) | nM | 1190
Cc1cc(O)cc(C)c1C[C@H](N)C(=O)N(C)[C@H](C)C(=O)N[C@H]1Cc2c(ccc3ccccc23)CN(CC(=O)N[C@@H](CCCN2CCC(Cc3ccccc3)CC2)C(=O)N[C@@H](Cc2ccccc2)C(N)=O)C1=O | nM | 1170

State, for Neuropeptide FF receptor 1 (Homo sapiens), measured Ki of the compound listed here: Cc1cc(O)cc(C)c1C[C@H](N)C(=O)N(C)[C@H](C)C(=O)N[C@H]1Cc2c(ccc3ccccc23)CN(CCC(=O)N[C@@H](CCCN2CCC(Cc3ccccc3)CC2)C(=O)N[C@@H](Cc2ccccc2)C(N)=O)C1=O
1310

State, for Neuropeptide FF receptor 1 (Homo sapiens), measured Ki of the compound listed here: Cc1cc(O)cc(C)c1C[C@H](NC(=N)N)C(=O)N[C@H](CCCNC(=N)N)C(=O)N[C@H]1Cc2ccccc2CN(CCC(=O)N[C@@H](CCCN2CCC(Cc3ccccc3)CC2)C(=O)N[C@@H](Cc2ccccc2)C(N)=O)C1=O
75
